These measurements were taken from FireProtDB (doi:10.1093/protein/12.10.841).

B1: Lysozyme C, P61626 (parent)
chain: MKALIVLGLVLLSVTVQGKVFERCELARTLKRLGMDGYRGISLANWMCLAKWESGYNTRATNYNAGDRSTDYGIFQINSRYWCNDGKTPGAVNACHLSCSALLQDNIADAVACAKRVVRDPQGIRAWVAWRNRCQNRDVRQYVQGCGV

variants of: B1; conditions: Homo sapiens; pH 2.7; Thermal; DSC; glycine 0.05 M; reversible: yes; structure 1LZ1; whole UniProt chain shown
Assignment: determine reported unfolding enthalpy (van 't Hoff) for the given variants.
Give the value in kcal/mol but do not write kcal/mol after it.

## Input Form field: reported unfolding enthalpy (van 't Hoff) of I77L
## Output 122

## Input Form field: reported unfolding enthalpy (van 't Hoff) of I74V
## Output 117

## Input Form field: reported unfolding enthalpy (van 't Hoff) of I77A
## Output 121

## Input Form field: reported unfolding enthalpy (van 't Hoff) of I77Y
## Output 105

## Input Form field: reported unfolding enthalpy (van 't Hoff) of I74F
## Output 106

## Input Form field: reported unfolding enthalpy (van 't Hoff) of I77G
## Output 109

## Input Form field: reported unfolding enthalpy (van 't Hoff) of I77V
## Output 117

## Input Form field: reported unfolding enthalpy (van 't Hoff) of I77M
## Output 115

## Input Form field: reported unfolding enthalpy (van 't Hoff) of I74L
## Output 119

## Input Form field: reported unfolding enthalpy (van 't Hoff) of I74T
## Output 108
